These measurements were taken from PubChem BioAssay AID1159580.

Experiment: chemical genetic growth profiling, strain panel (AID 1159580);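 note: tested at 20 µM; growth read once vehicle control cultures reached saturation at 30 °C; 1 = growth at the plate median or of vehicle wells; lower values mean less growth of the strain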
Conditions: S. cerevisiae deletion strains, growth OD, locus YDR069C, strain doa4, stronger effect = lower value
Hit rate of the full screen: of about 5,500 compounds, about 2,000 (36%) were called active. Another 18% or so got no clear call; they are omitted. Some of the results follow.
property: normalized growth

* Cn1c(=O)c2[nH]c(C3CCCC3)nc2n(C)c1=O | 0.979
* O=C(O)/C=C(\CC(=O)O)C(=O)O | 1.01
* S=c1ccss1 | 0.835
* COc1cc([C@@H]2c3cc4c(cc3C(O[C@@H]3O[C@@H]5CO[C@@H](c6cccs6)OC5[C@H](O)[C@H]3O)C3COC(=O)[C@@H]32)OCO4)cc(OC)c1O (stereo partly specified) | 0.983
* CN1CCOC(c2ccccc2)c2ccccc2C1 (stereo unspecified) | 0.91
* CCCCCCCCCCCCCCCC[n+]1ccccc1 | 0.0582
